B1: TPR t1 (parent)
chain: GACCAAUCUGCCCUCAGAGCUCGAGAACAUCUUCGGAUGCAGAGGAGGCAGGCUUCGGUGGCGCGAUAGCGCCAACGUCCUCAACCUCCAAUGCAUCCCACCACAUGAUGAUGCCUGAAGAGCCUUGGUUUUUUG

Variants of: B1
Assay Comment: polymerase ribozyme fitness, log enrichment relative to wild type (log ratio); higher = more active; in vitro selection for triplet polymerase activity
# reported polymerase ribozyme fitness (log ratio); entries follow
Number only, please.

G17A C124G : 0.0623
A2G C73G C85A G113A G120C : -3.08
C8G U38A A100U : -2.56

Name the reported polymerase ribozyme fitness (log ratio) value associated with the variant G61U A103G
-4.75

Now give it for U32C C49U A95C U133A too.
-1.67

Now give it for C94U A108U C114U U131G too.
-7.59

Now give it for C12G C123G too.
1.55

Now give it for C13A A46G U125G too.
-3.19

Now give it for C34G G36U C72U U96C G127C U130G too.
-6.19

Now give it for G58C G110C A121U too.
-4.05

Now give it for G71U A75U C98U too.
-2.02
